Biological target: Aβ42 (Homo sapiens, UniProt P05067)
Sequence (P05067 672-713): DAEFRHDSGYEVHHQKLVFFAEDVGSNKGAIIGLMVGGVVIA
Experiment: Th-T (thioflavin-T) assay of Aβ42 aggregation
Assay type: biochemical
Conditions: Supplementary Fig. 47 source data; measurement M39 of time course
Sorting guide: entries reporting Th-T fluorescence, mean of three wells beneath 3 go in the Yes pile, the rest go in the No pile.

# COMPOUND, LABEL
measured = [
    ("C=C1CC[C@H]2[C@]3(C)C[C@H](C=C(C)C)O[C@H]3CC[C@]2(C)[C@@H]1Cc1c(OC)oc(C)c(C)c1=O [Compound 24]", "No"),
    ("C=C1CCC2C(C)(CC(=O)C=C(C)C)C(O)CCC2(C)C1Cc1c(OC)oc(C)c(C)c1=O (stereo not drawn) [Compound 25]", "No"),
    ("C=C1CC[C@H]2[C@]3(C)C[C@@H](C=C(C)C)O[C@H]3CC[C@]2(C)[C@@H]1Cc1c(O)c(C)c(C)oc1=O [Compound 5, subglutinol A]", "Yes"),
    ("C=C1CCC2C(C)(CCC=C(C)C)C(=O)CCC2(C)C1Cc1c(O)c(C)c(C)oc1=O (stereo not drawn) [Compound 8]", "Yes"),
]

* * *

Biological target: Aβ42 (Homo sapiens, UniProt P05067)
Experiment: Th-T (thioflavin-T) assay of Aβ42 aggregation
Format: biochemical
Details: Supplementary Fig. 47; reading M144

# MOLECULE, Th-T fluorescence, mean of three wells
records = [
    ("C=C1CCC2C(C)(CCC=C(C)C)C(O)CCC2(C)C1Cc1c(OC)oc(C)c(C)c1=O (stereo not shown) [Compound 15, viridoxin A hydrolysate]", 3.346),
    ("C=C1CCC2C(C)(CC(=O)C=C(C)C)C(O)CCC2(C)C1Cc1c(OC)oc(C)c(C)c1=O (stereo not shown)", 3.474),
    ("C=C1CC[C@H]2[C@]3(C)C[C@H](C=C(C)C)O[C@H]3CC[C@]2(C)[C@@H]1Cc1c(O)c(C)c(C)oc1=O", 3.0125),
    ("C=C1CCC2C(C)(CCC=C(C)C)C(O)CCC2(C)C1Cc1c(O)c(C)c(C)oc1=O (stereo not shown) [Compound 9, higginsianin B]", 2.791),
    ("C=C1CCC2C(C)(CCC=C(C)C)C(O)CCC2(C)C1Cc1c(O)c(C)c(C)oc1=O (stereo not shown) [Compound 4]", 2.748),
    ("C=C1CCC2C(C)(CCC=C(C)C)C(=O)CCC2(C)C1Cc1c(O)c(C)c(C)oc1=O (stereo not shown)", 2.22),
    ("C=C1CCC2C(C)(CCC=C(C)C)C(O)CCC2(C)C1Cc1c(OC)oc(C)c(C)c1=O (stereo not shown) [Compound 11]", 3.297),
]

* * *

Molecular target: Aβ42 (Homo sapiens)
Experiment: Th-T (thioflavin-T) assay of Aβ42 aggregation
Type: biochemical
Settings: Aβ42 aggregation time course, reading M123
Sorting guide: entries reporting Th-T fluorescence, mean of three wells beneath 3 go in the TRUE pile, the rest go in the FALSE pile.

# COMPOUND, LABEL
measured = [
    ("C=C1CC[C@H]2[C@]3(C)C[C@@H](C=C(C)C)O[C@H]3CC[C@]2(C)[C@@H]1Cc1c(O)c(C)c(C)oc1=O", "TRUE"),
    ("C=C1CCC2C(C)(CCC=C(C)C)C(O)CCC2(C)C1Cc1c(OC)oc(C)c(C(=O)OC)c1=O (centres unmarked)", "TRUE"),
    ("C=C1CCC2C(C)(CCC=C(C)C)C(=O)CCC2(C)C1Cc1c(O)c(C)c(C)oc1=O (centres unmarked)", "TRUE"),
    ("C=C1CCC2C(C)(CCC=C(C)C)C(O)CCC2(C)C1Cc1c(OC)oc(C)c(C)c1=O (centres unmarked) [Compound 15, viridoxin A hydrolysate]", "FALSE"),
    ("C=C1CCC2C(C)(CCC=C(C)C)C(O)CCC2(C)C1Cc1c(OC)oc(C)c(C)c1=O (centres unmarked) [Compound 11]", "FALSE"),
    ("C=C1CCC2C(C)(CCC=C(C)C)C(O)CCC2(C)C1Cc1c(O)c(C)c(C)oc1=O (centres unmarked) [Compound 9, higginsianin B]", "TRUE"),
    ("C=C1CCC2C3(C)CC(C=C(C)C)OC3CCC2(C)C1Cc1c(OC)oc(C)c(C)c1=O (centres unmarked)", "FALSE"),
    ("C=C1CCC2C(C)(CC(=O)C=C(C)C)C(O)CCC2(C)C1Cc1c(OC)oc(CO)c(C)c1=O (centres unmarked)", "FALSE"),
    ("C=C1CC[C@H]2[C@]3(C)C[C@H](C=C(C)C)O[C@H]3CC[C@]2(C)[C@@H]1Cc1c(OC)oc(C)c(C)c1=O", "FALSE"),
    ("C=C1CC[C@H]2[C@]3(C)C[C@H](C=C(C)C)O[C@H]3CC[C@]2(C)[C@@H]1Cc1c(OC)oc(CO)c(C)c1=O", "FALSE"),
    ("C=C1CC[C@H]2[C@]3(C)C[C@@H](C=C(C)C)O[C@H]3CC[C@]2(C)[C@@H]1Cc1c(OC)oc(CO)c(C)c1=O", "FALSE"),
    ("C=C1CC[C@@H]2[C@](C)(CC[C@H]3O[C@H](C=C(C)C)C[C@@]23C)[C@@H]1Cc1c(OC)oc(CO)c(C(=O)OC)c1=O", "TRUE"),
    ("C=C1CCC2C(C)(CCC=C(C)C)C(O)CCC2(C)C1Cc1c(OC)oc(CO)c(C)c1=O (centres unmarked)", "TRUE"),
]
